# Tested on: HiBiT-tagged MYB protein
# method description: HiBiT protein abundance assay, MYB (K562 HiBiT knock-in cells)
# Type: cell-based, human
# settings: 24 hours
pIC50: −log10 of the molar value.

# molecule, pIC50
data = [
    ("COc1nc(NC(=O)c2ccc(N3C[C@@H](C)N[C@@H](C)C3)c3nccnc23)cc2oc(C)nc12 [Compound 298]", "6.00 to 7.00"),
    ("CCNC1CCN(c2ccc(C(=O)Nc3cc(F)c4nc(C)cn4c3)c3nccnc23)CC1 [Compound 191]", "> 7.00"),
    ("Cc1cn2cc(NC(=O)c3ccc(N4CCN[C@@H](C(C)C)C4)c4nccnc34)cc(F)c2n1 [Compound 250]", "6.00 to 7.00"),
    ("Cc1cn2cc(NC(=O)c3ccc(N4CCC(NC5CC5)CC4)c4nccnc34)cc(F)c2n1 [Compound 258]", "> 7.00"),
]
